Hello, the source for this data is the supplement of paper PMC9170038, in case you need it.

Measured apparent KD of K4 kissing-loop reporter, listed per entry.
- Tested on: K4 kissing-loop RNA reporter
- method_description: apparent KD of K4 kissing-loop reporter; higher = weaker reporter binding
- assay_context: Eterna round: R107; input ligand: none
Be sure to follow the number with its unit.

Worked examples follow.
biopolymer_sequence: AAGGGCUAGGCGGCCGCCACUGGUCGUGUACACAUACGAACCAGUGAUGUUGGUAUUGUAUGCGACAGGACCGGGCCUAGCCGAA [Exclusion - Tryptophan B (Freestyle 27)]
apparent KD of K4 kissing-loop reporter: 249 nM
//
biopolymer_sequence: CCAAGGUGCUUCUGUUCAGUGAUGUUGGUACGAGGACCGGUACGGCCGCCACUCGCCGUACAAUCGCUAGUUAAUCAUUGGCAAG [theeternabot_exclusion_KL_Trp_A_40]
apparent KD of K4 kissing-loop reporter: 660 nM
//
biopolymer_sequence: CUACAUGCACAGGAGUGAUGUUUAUGGGCUCGAGGACCGGUACGGCCGCCACUCGUUAUGGCACGCAGUAGAUAUAGGCGAGGAA [theeternabot_sameState_KL_Trp_A_41]
apparent KD of K4 kissing-loop reporter: 605 nM
//
biopolymer_sequence: UACCUGCUGUCAGGAUAUGAGUGCAGUGAUGUUGCACUCAACGUAACCAUCUUGAAAUGCAAACACUCAGAAGGGACGCGCGAAG [Onaninso]
apparent KD of K4 kissing-loop reporter: 122 nM
//
biopolymer_sequence: GCGCGGCUCAGUGAUGUUGAGCCUCGGAAACGAGGACCGGUACGGCCGCCACUCGUCCGCGCAGCUGAGGCAAAAGCCUCGGCUA [Omei KL Tryp A SS B v2]
apparent KD of K4 kissing-loop reporter: 484 nM

Item GUACGCUCUCGAGUGAUGUUCGAUAAUCGCGAGGAUAUCGCUUUUGCGAGAAGGCGCGGAAUGAGGAAACUCGUUCUGAGUGUAC [FMN A 24] : provide apparent KD of K4 kissing-loop reporter 1060 nM

Item UGUACCGAGUCAGGAUAUCAUAAUAAUCGAGUGAUGUUCGAAUAACGACUGACAAAGUCGGUCGAUUGAGAAGGGACUUGGUACU [FmnBS 7 #SwitchBubble #StaticStem] : provide apparent KD of K4 kissing-loop reporter 444 nM

Item AAUAUAGUGAUGUUAUAUAAGAAGGAGUUACGAGGACCGGUACGGCCGCCACUCGAAACGAGUGAGGGCUUGGGAGAUUGGGCCC [SSTryptA.I] : provide apparent KD of K4 kissing-loop reporter 444 nM

----------
Measured apparent KD of K4 kissing-loop reporter, listed per entry.
- Tested on: K4 kissing-loop RNA reporter;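 also: bound reporter read as fluorescence of individual clusters on recovered sequencing chips by microscopy, with normalized cluster intensities fitted with a binding model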
- method_description: apparent KD of K4 kissing-loop reporter; higher = weaker reporter binding
- assay_context: Eterna round: R107; input ligand: none
Unit nM implied. Number only.

biopolymer_sequence: UGACAUUGCUCAGAUACCAGACAUGAGCAUCAGCCAUGUGCCAAACGUACAAUAAUAAAUGUCCCUUGGCAGCUGAGCAAUGUCU [TheoBX 14]
measurement_units: nM
apparent KD of K4 kissing-loop reporter: 53.1
//
biopolymer_sequence: GCUGAGGAGUGAUGUUCCAAGUGAUGUUAACGAGGACCGGUACGGCCGCCACUCGAUACGGCCGGACCGUAAGAUAAACUACAGC [Same State - Tryptophan A (Freestyle 7)]
measurement_units: nM
apparent KD of K4 kissing-loop reporter: 288
//
biopolymer_sequence: AAUAAUAGUUGAGCAGGCGUGGUCUGAGAUACCAGUGAUUUCGAUCACCCUUGGCAGCUCAGCAUGAGUGAUGUUCAUGCUAUUC [Theo A Ex t10]
measurement_units: nM
apparent KD of K4 kissing-loop reporter: 134
//
biopolymer_sequence: AAAAUAAAUAGCAGUCAUGGAGUGAUGUUCCGAGGACCGGUACGGCCGCCACUCGACCAUCAUAAGAUGGAAUGGCGAGACUGCA [#SwitchBubble 22 #K4Early]
measurement_units: nM
apparent KD of K4 kissing-loop reporter: 249
//
biopolymer_sequence: AGUGCACUGUCAGGAUAUAUACAGUGAUGUUGUGUAUGUCAGCAAGUCAAAGACUUGCUAUUCUGUGUAGAAGGGACUGUGUACA [Omei KL FMN B Exc A v1]
measurement_units: nM
apparent KD of K4 kissing-loop reporter: 230

We now examine a further sequence.
Item UGACUGGACUGAAGGAGCGCUUAACUCCUAGUGAUGUUAGGAUAACGAGACAAAGUCUCGAAGCAGGUAGGUCGCAGUCUAGUCU : provide apparent KD of K4 kissing-loop reporter 118
